Data provenance: the supplement of paper PMC11061612

Test system: COLO-668 (Small Cell Lung Carcinoma)
Assay: combination Emax (second highest fraction inhibited in the dose matrix, 72 h); higher = more inhibition; extreme values may be limits of the assay
Outcome Measure: combination Emax
Number only, no unit.

[ask] Look up combination Emax of Cc1cc2ncnn2cc1Nc1ncc2c(n1)n(C1CCOCC1)c(=O)n2C [AZD7648] + CCN(CCO)CCCOc1ccc2c(Nc3cc(CC(=O)Nc4cccc(F)c4)[nH]n3)ncnc2c1 [AZD2811] (first compound max 10 µM, 7x7, partner max 1 µM) and report it.
[reply] 0.158

[ask] Look up combination Emax of CN(C)CCCOc1ccc(-c2ccc3ncc4c(c3c2)n(C2CCOCC2)c(=O)n4C)cn1 [AZD0156] + O=C(c1cc(Cc2n[nH]c(=O)c3ccccc23)ccc1F)N1CCN(C(=O)C2CC2)CC1 [Olaparib] (first compound max 3 µM, partner max 3 µM) and report it.
[reply] 0.179

[ask] Look up combination Emax of C[C@@H](c1ccc2nccn2c1)n1nnc2ncc(-c3cnn(C)c3)nc21 [Savolitinib] + Cc1c2c(nn1C)CSCc1cc(n(C)n1)CSc1cc(c3ccccc3c1)OCCCc1c(C(=O)O)n(C)c3c-2c(Cl)ccc13 [AZD5991] (first compound max 1 µM, 7x7, partner max 1 µM) and report it.
[reply] 0.257

[ask] Look up combination Emax of Cc1c2c(nn1C)CSCc1cc(n(C)n1)CSc1cc(c3ccccc3c1)OCCCc1c(C(=O)O)n(C)c3c-2c(Cl)ccc13 [AZD5991] + C[C@@H]1COCCN1C2=NC(=NC(=C2)C3(CC3)[S@](=N)(=O)C)C4=C5C=CNC5=NC=C4 [AZD6738] (first compound max 1 µM, 7x7, partner max 10 µM) and report it.
[reply] 0.63

* * *

Tested on: Mo-T (Other Blood Carcinomas)
Test: Bliss excess, mean over the matrix (fraction); higher = more synergy
Please go through the items and note down their Bliss excess.
Number only, no unit.

[ask] Look up Bliss excess of CCN(CCO)CCCOc1ccc2c(Nc3cc(CC(=O)Nc4cccc(F)c4)[nH]n3)ncnc2c1 [AZD2811] + C[C@@H]1COCCN1C2=NC(=NC(=C2)C3(CC3)[S@](=N)(=O)C)C4=C5C=CNC5=NC=C4 [AZD6738] (first compound max 1 µM, 7x7, partner max 10 µM) and report it.
[reply] -0.0188

[ask] Look up Bliss excess of CN(CCO)CC[C@H](CSc1ccccc1)Nc1ccc(S(=O)(=O)NC(=O)c2ccc(N3CCC([C@@H](O)c4ccccc4-c4ccc(Cl)cc4)CC3)cc2)cc1S(=O)(=O)C(F)(F)F [AZD4320] + CC(=O)O[C@H]1C(=O)[C@@]2(C)[C@H]([C@H](OC(=O)c3ccccc3)[C@]3(O)C[C@H](OC(=O)[C@H](O)[C@@H](NC(=O)c4ccccc4)c4ccccc4)C(C)=C1C3(C)C)[C@]1(OC(C)=O)CO[C@@H]1C[C@@H]2O [Paclitaxel] (first compound max 1 µM, 7x7, partner max 3 µM) and report it.
[reply] 0.163

[ask] Look up Bliss excess of N#Cc1cnc(Nc2cc(NC[C@H]3CNCCO3)c(C(F)(F)F)cn2)cn1 [SRA737] + CCc1c2c(nc3ccc(O)cc13)-c1cc3c(c(=O)n1C2)COC(=O)[C@]3(O)CC [SN-38] (first compound max 10 µM, 7x7, partner max 0.3 µM) and report it.
[reply] -0.0363

[ask] Look up Bliss excess of Cc1cc2ncnn2cc1Nc1ncc2c(n1)n(C1CCOCC1)c(=O)n2C [AZD7648] + CN(C)CCCOc1ccc(-c2ccc3ncc4c(c3c2)n(C2CCOCC2)c(=O)n4C)cn1 [AZD0156] (first compound max 10 µM, 7x7, partner max 1 µM) and report it.
[reply] -0.122

* * *

System: Ca-Ski (Cervical Carcinoma)
Experiment: Bliss excess, mean over the matrix (fraction); higher = more synergy
Please go through the items and note down their Bliss excess.

[ask] Look up Bliss excess of CS(=O)(=O)CCNCc1ccc(-c2ccc3ncnc(Nc4ccc(OCc5cccc(F)c5)c(Cl)c4)c3c2)o1 [Lapatinib] + C[C@@H](Oc1cc(-c2cnn(C3CCNCC3)c2)cnc1N)c1c(Cl)ccc(F)c1Cl [Crizotinib] (first compound max 10 µM, 7x7, partner max 10 µM) and report it.
[reply] -0.042

[ask] Look up Bliss excess of COc1nnc2ccc(N3CCC(c4ccc(OCCN5CCN(C)C(=O)[C@H]5C)cc4)CC3)nn12 [AZD5153] + Cc1c2c(nn1C)CSCc1cc(n(C)n1)CSc1cc(c3ccccc3c1)OCCCc1c(C(=O)O)n(C)c3c-2c(Cl)ccc13 [AZD5991] (first compound max 1 µM, 7x7, partner max 1 µM) and report it.
[reply] 0.0415

[ask] Look up Bliss excess of COc1cccc(OCCCN)c1-c1cc(Nc2cnc(C#N)cn2)n[nH]1 [Prexasertib] + Cc1cc2ncnn2cc1Nc1ncc2c(n1)n(C1CCOCC1)c(=O)n2C [AZD7648] (first compound max 1 µM, 7x7, partner max 10 µM) and report it.
[reply] -0.0159

[ask] Look up Bliss excess of NC1(C(=O)N[C@@H](CCO)c2ccc(Cl)cc2)CCN(c2ncnc3[nH]ccc23)CC1 [Capivasertib] + CC(C)n1c(=O)n(C)c2cnc3cc(F)c(-c4ccc(OCCCN5CCCCC5)nc4)cc3c21 [AZD1390] (first compound max 10 µM, 7x7, partner max 0.3 µM) and report it.
[reply] -0.0436

* * *

System: HCC2998 (Colorectal Carcinoma)
Assay: Bliss excess, mean over the matrix (fraction); higher = more synergy
Outcome Measure: Bliss excess
Number only, no unit.

[ask] Answer briefly: Bliss excess recorded on HCC2998 (Colorectal Carcinoma) for NC1(C(=O)N[C@@H](CCO)c2ccc(Cl)cc2)CCN(c2ncnc3[nH]ccc23)CC1 [Capivasertib] + CC(C)n1c(=O)n(C)c2cnc3cc(F)c(-c4ccc(OCCCN5CCCCC5)nc4)cc3c21 [AZD1390] (first compound max 10 µM, 7x7, partner max 0.3 µM)
[reply] -0.0275

[ask] Answer briefly: Bliss excess recorded on HCC2998 (Colorectal Carcinoma) for CC1(C)CCC(CN2CCN(c3ccc(C(=O)NS(=O)(=O)c4ccc(NCC5CCOCC5)c([N+](=O)[O-])c4)c(Oc4cnc5[nH]ccc5c4)c3)CC2)=C(c2ccc(Cl)cc2)C1 [Venetoclax] + CCN(CCO)CCCOc1ccc2c(Nc3cc(CC(=O)Nc4cccc(F)c4)[nH]n3)ncnc2c1 [AZD2811] (first compound max 1 µM, 7x7, partner max 1 µM)
[reply] -0.0403

* * *

Tested on: OE33 (Esophageal Adenocarcinoma)
Experiment: combination Emax (second highest fraction inhibited in the dose matrix, 72 h); higher = more inhibition; extreme values may be limits of the assay
Please go through the items and note down their combination Emax.
Number only, no unit.

[ask] Look up combination Emax of CC1(C)CCC(CN2CCN(c3ccc(C(=O)NS(=O)(=O)c4ccc(NCC5CCOCC5)c([N+](=O)[O-])c4)c(Oc4cnc5[nH]ccc5c4)c3)CC2)=C(c2ccc(Cl)cc2)C1 [Venetoclax] + C[C@@H]1COCCN1C2=NC(=NC(=C2)C3(CC3)[S@](=N)(=O)C)C4=C5C=CNC5=NC=C4 [AZD6738] (first compound max 1 µM, 7x7, partner max 10 µM) and report it.
[reply] 0.773

[ask] Look up combination Emax of CN(C)CCCOc1ccc(-c2ccc3ncc4c(c3c2)n(C2CCOCC2)c(=O)n4C)cn1 [AZD0156] + CCN(CCO)CCCOc1ccc2c(Nc3cc(CC(=O)Nc4cccc(F)c4)[nH]n3)ncnc2c1 [AZD2811] (first compound max 1 µM, 7x7, partner max 1 µM) and report it.
[reply] 0.068

* * *

Please go through the items and note down their combination Emax.
Tested on: NCI-H1993 (Lung Adenocarcinoma)
Test: combination Emax (second highest fraction inhibited in the dose matrix, 72 h); higher = more inhibition; extreme values may be limits of the assay
Number only, no unit.

[ask] Look up combination Emax of Cn1cnc2c(F)c(Nc3ccc(Br)cc3Cl)c(C(=O)NOCCO)cc21 [Selumetinib] + CCN(CCO)CCCOc1ccc2c(Nc3cc(CC(=O)Nc4cccc(F)c4)[nH]n3)ncnc2c1 [AZD2811] (first compound max 10 µM, 7x7, partner max 1 µM) and report it.
[reply] 0.703

[ask] Look up combination Emax of COc1cccc(OCCCN)c1-c1cc(Nc2cnc(C#N)cn2)n[nH]1 [Prexasertib] + O=C(c1cc(Cc2n[nH]c(=O)c3ccccc23)ccc1F)N1CCN(C(=O)C2CC2)CC1 [Olaparib] (first compound max 1 µM, 7x7, partner max 10 µM) and report it.
[reply] 0.845

* * *

System: LC-1-sq (Squamous Cell Lung Carcinoma)
Assay: Bliss excess, mean over the matrix (fraction); higher = more synergy
Please go through the items and note down their Bliss excess.
Number only, no unit.

[ask] Look up Bliss excess of COc1cccc2c1C(=O)c1c(O)c3c(c(O)c1C2=O)C[C@@](O)(C(=O)CO)C[C@@H]3O[C@H]1C[C@H](N)[C@H](O)[C@H](C)O1 [Doxorubicin] + Cc1cc2ncnn2cc1Nc1ncc2c(n1)n(C1CCOCC1)c(=O)n2C [AZD7648] (first compound max 1 µM, 7x7, partner max 10 µM) and report it.
[reply] 0.117

[ask] Look up Bliss excess of COc1nnc2ccc(N3CCC(c4ccc(OCCN5CCN(C)C(=O)[C@H]5C)cc4)CC3)nn12 [AZD5153] + Cc1c2c(nn1C)CSCc1cc(n(C)n1)CSc1cc(c3ccccc3c1)OCCCc1c(C(=O)O)n(C)c3c-2c(Cl)ccc13 [AZD5991] (first compound max 1 µM, 7x7, partner max 1 µM) and report it.
[reply] 0.0198

[ask] Look up Bliss excess of COc1cc2ncnc(Nc3ccc(F)c(Cl)c3)c2cc1OCCCN1CCOCC1 [Gefitinib] + CC(C)n1c(=O)n(C)c2cnc3cc(F)c(-c4ccc(OCCCN5CCCCC5)nc4)cc3c21 [AZD1390] (first compound max 10 µM, 7x7, partner max 0.3 µM) and report it.
[reply] -0.0754

[ask] Look up Bliss excess of CN(CCO)CC[C@H](CSc1ccccc1)Nc1ccc(S(=O)(=O)NC(=O)c2ccc(N3CCC([C@@H](O)c4ccccc4-c4ccc(Cl)cc4)CC3)cc2)cc1S(=O)(=O)C(F)(F)F [AZD4320] + CCN(CCO)CCCOc1ccc2c(Nc3cc(CC(=O)Nc4cccc(F)c4)[nH]n3)ncnc2c1 [AZD2811] (first compound max 1 µM, 7x7, partner max 1 µM) and report it.
[reply] 0.0294

[ask] Look up Bliss excess of Cc1c2c(nn1C)CSCc1cc(n(C)n1)CSc1cc(c3ccccc3c1)OCCCc1c(C(=O)O)n(C)c3c-2c(Cl)ccc13 [AZD5991] + C[C@@H](Nc1cc(F)cc(F)c1)c1cc(C(=O)N(C)C)cc2c(=O)cc(N3CCOCC3)oc12 [AZD8186] (first compound max 1 µM, 7x7, partner max 3 µM) and report it.
[reply] 0.0352

[ask] Look up Bliss excess of Cc1c2c(nn1C)CSCc1cc(n(C)n1)CSc1cc(c3ccccc3c1)OCCCc1c(C(=O)O)n(C)c3c-2c(Cl)ccc13 [AZD5991] + Cc1cc2ncnn2cc1Nc1ncc2c(n1)n(C1CCOCC1)c(=O)n2C [AZD7648] (first compound max 1 µM, 7x7, partner max 10 µM) and report it.
[reply] 0.0048

[ask] Look up Bliss excess of CC(=O)Nc1cccc(-n2c(=O)n(C3CC3)c(=O)c3c(Nc4ccc(I)cc4F)n(C)c(=O)c(C)c32)c1 [Trametinib] + Cc1nc(-c2cn3c(n2)-c2ccc(-c4cnn(C(C)(C)C(N)=O)c4)cc2OCC3)n(C(C)C)n1 [Taselisib] (first compound max 1 µM, 7x7, partner max 10 µM) and report it.
[reply] 0.24

[ask] Look up Bliss excess of COc1cccc(OCCCN)c1-c1cc(Nc2cnc(C#N)cn2)n[nH]1 [Prexasertib] + CCc1c2c(nc3ccc(O)cc13)-c1cc3c(c(=O)n1C2)COC(=O)[C@]3(O)CC [SN-38] (first compound max 1 µM, 7x7, partner max 0.3 µM) and report it.
[reply] 0.0039
